- Tested System: recombinant human 17β-HSD2 (Homo sapiens, UniProt P37059)
- Construct: made in house; host or cells: Sd9 (Sf9) insect cells, baculovirus (Bac to Bac Expression System)
- Assay Overview: Inhibition of recombinant human 17β-HSD2
- Assay type: biochemical
- Measurement Conditions: inhibitor at 1 μM; 50 nM estradiol, 1 mM NADH, 30 min at RT; read-out: 17β-HSD2 Inhibition % at 1 μM
Some compounds, each annotated with its measured inhibition at 1 µM.
Provide the reading as a plain figure in %.

Assay recombinant human 17β-HSD2 (Homo sapiens, UniProt P37059), sample Cc1cnc(NC(=O)CC[C@@H]2CC(=O)[C@@]3(C)CCC4c5cc(C(C)C)c(O)cc5CCC4C23)s1 (some centres unmarked) , inhibition at 1 µM read: 1

For Cc1cnc(NC(=O)CC[C@@H]2CC(=O)[C@@]3(C)CCC4c5ccc(O)c(F)c5CCC4C23)s1 (some centres unmarked) on recombinant human 17β-HSD2 (Homo sapiens, UniProt P37059), measured inhibition at 1 µM was 8

###

- Tested System: recombinant human 17β-HSD2 (Homo sapiens, UniProt P37059)
- Construct: made in house; host or cells: Sd9 (Sf9) insect cells, baculovirus (Bac to Bac Expression System)
- Sequence (P37059 1-387): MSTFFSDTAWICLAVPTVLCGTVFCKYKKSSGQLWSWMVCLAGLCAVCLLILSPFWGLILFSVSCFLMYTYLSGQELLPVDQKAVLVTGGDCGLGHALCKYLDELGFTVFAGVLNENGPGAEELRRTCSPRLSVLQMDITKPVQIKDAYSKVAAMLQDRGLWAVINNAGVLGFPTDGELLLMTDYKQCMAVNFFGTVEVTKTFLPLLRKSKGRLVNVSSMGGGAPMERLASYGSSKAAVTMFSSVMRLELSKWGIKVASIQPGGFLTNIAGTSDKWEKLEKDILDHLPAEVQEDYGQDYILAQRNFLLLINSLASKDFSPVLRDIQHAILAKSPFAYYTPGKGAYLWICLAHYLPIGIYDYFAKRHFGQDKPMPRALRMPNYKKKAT
- Assay Overview: Inhibition of recombinant human 17β-HSD2
- Format: biochemical
- Measurement Conditions: inhibitor at 1 μM; 50 nM estradiol, 1 mM NADH, 30 min at RT; read-out: 17β-HSD2 Inhibition % at 1 μM
Listed here are compounds together with their documented inhibition at 1 µM.
Answer format: numeric, % implied, no suffix.

Here is how some compounds turned out for inhibition at 1 µM.
>>> df
                                   compound  value
0  Cc1cnc(NC(=O)CC[C@@H]2CC(=O)[C@@]3(C)CCC4c5cccc(C(C)(C)C)c5CCC4C23)s1 (stereo partly drawn)     16
1  CC(=O)Oc1ccccc1C(=O)Oc1ccc2c(c1)CCC1C2CC[C@]2(C)C(=O)C[C@@H](CCC(=O)Nc3ncc(C)s3)C12 (stereo partly drawn)      0

Entry under test: Cc1cnc(NC(=O)CC[C@@H]2CC(=O)[C@@]3(C)CCC4c5cc(O)c(O)cc5CCC4C23)s1 (stereo partly drawn) . Its inhibition at 1 µM was 3

Measured inhibition at 1 µM, Cc1cnc(NC(=O)CC[C@@H]2CC(=O)[C@@]3(C)CCC4c5ccc(OS(=O)(=O)C(F)(F)F)cc5CCC4C23)s1 (stereo partly drawn) : 0

Note to self: inhibition at 1 µM recorded for COc1ccc2c(c1)CCC1C2CC[C@]2(C)C(=O)/C(=C/O)[C@@H](CCC(=O)Nc3ncc(C)s3)C12 (stereo partly drawn) was 11

###

- Tested System: recombinant human 17β-HSD2 (Homo sapiens, UniProt P37059)
- Construct: made in house; host or cells: Sd9 (Sf9) insect cells, baculovirus (Bac to Bac Expression System)
- Sequence (P37059 1-387): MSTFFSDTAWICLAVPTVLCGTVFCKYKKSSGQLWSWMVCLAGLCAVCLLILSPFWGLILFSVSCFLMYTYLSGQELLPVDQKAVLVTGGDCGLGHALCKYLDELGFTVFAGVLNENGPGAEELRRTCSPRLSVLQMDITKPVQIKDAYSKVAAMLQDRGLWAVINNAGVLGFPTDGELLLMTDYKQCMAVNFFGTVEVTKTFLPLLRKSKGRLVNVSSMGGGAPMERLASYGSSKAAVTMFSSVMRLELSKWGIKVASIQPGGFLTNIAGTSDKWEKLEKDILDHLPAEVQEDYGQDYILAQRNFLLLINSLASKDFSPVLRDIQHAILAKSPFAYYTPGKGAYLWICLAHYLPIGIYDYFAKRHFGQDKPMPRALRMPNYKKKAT
- Assay Overview: Inhibition of recombinant human 17β-HSD2
- Type: biochemical
- Measurement Conditions: inhibitor at 1 μM; 50 nM estradiol, 1 mM NADH, 30 min at RT; read-out: 17β-HSD2 Inhibition % at 1 μM
Rule: inhibition at 1 µM under 7% gives 0, otherwise 1.

Examples with answers:
>>> df
                                   compound  qualitative_label
0  Cc1cnc(NC(=O)CC[C@@H]2CC(=O)[C@@]3(C)CCC4c5ccccc5CCC4C23)s1 (stereo partly shown)                  0
1  Cc1cnc(NC(=O)CC[C@@H]2CC(=O)[C@@]3(C)CCC4c5cc([N+](=O)[O-])c(O)c(Cl)c5CCC4C23)s1 (stereo partly shown)                  0
2  Cc1cnc(NC(=O)CC[C@@H]2CC(=O)[C@@]3(C)CCC4c5ccc(OC(=O)CN(C)C)cc5CCC4C23)s1 (stereo partly shown)                  0
3  Cc1nc2c3c(ccc2o1)C1CC[C@]2(C)C(=O)C[C@@H](CCC(=O)Nc4ncc(C)s4)C2C1CC3 (stereo partly shown)                  0
4  Cc1cnc(NC(=O)CC[C@@H]2CC(=O)[C@@]3(C)CCC4c5ccc(OS(C)(=O)=O)cc5CCC4C23)s1 (stereo partly shown)                  1

# next compound below
Threshold query (inhibition at 1 µM >= 7%) on Cc1cnc(NC(=O)CC[C@@H]2CC(=O)[C@@]3(C)CCC4c5ccc(O)c(Br)c5CCC4C23)s1 (stereo partly shown)
1
